- System: HSkMC
- TEST_DETAILS: cytotoxicity call (relative viability < 0.9)
- PROTOCOL_CONDITIONS: 10 µM
In all, about 39,000 compounds went through this assay and about 1,500 (3.8%) were called active. The sample as a whole holds a higher share of actives than the screen did.
Please reply with one of these outcomes: active, inactive

Examples with answers:
# MOLECULE, ANSWER_LABEL
rows = [
    ("C(=N\\c1ccccc1)/c1ccc(Oc2ccccc2)cc1", "inactive"),
    ("O=C(Oc1ccccc1C(=O)O)c1ccccc1O", "inactive"),
    ("COc1ccc(CCN2C(=O)[C@@]3(c4ccc([N+](=O)[O-])cc4)CC(=O)N(CC45CC6CC(CC(C6)C4)C5)[C@@H]3c3ccc(CO)cc32)cc1", "inactive"),
    ("CS(=O)(=O)N1[C@@H]2c3ccc(-c4ccc(F)cc4)c(=O)n3C[C@@H]2[C@@H](CO)[C@@H]1C(=O)O", "inactive"),
]

(Q) # fetch the recorded call for CC1CC(OC(=O)C(O)c2ccccc2)CC(C)(C)C1 (centres undefined) here
(A) inactive

(Q) Likewise for C[C@@H]1CCCCO[C@@H](CN(C)S(=O)(=O)c2cn(C)cn2)[C@H](C)CN([C@@H](C)CO)C(=O)c2cc(NC(=O)CCCN(C)C)ccc2O1 ?
(A) inactive

(Q) Likewise for O=C1[C@H]2C=NN[C@@H]2C(=O)N1Cc1ccccc1 ?
(A) inactive

(Q) Likewise for CC1CC(OC(=O)c2ccccc2O)CC(C)(C)C1 (centres undefined) ?
(A) active

(Q) Likewise for O=C(CCCN1CCC(O)(c2ccc(Cl)cc2)CC1)c1ccc(F)cc1 ?
(A) inactive

----------
- Test system: HSkMC
- TEST_DETAILS: cytotoxicity call (relative viability < 0.9)
- PROTOCOL_CONDITIONS: 10 µM
Among all 39,000 compounds or so, about 1,500 (3.8%) were called active. This is one part of a sample in which actives are shown more often than they occur.
Please reply with one of these outcomes: 1 (yes) (active), 0 (no) (inactive)

Examples with answers:
# STRUCTURE_SMILES_STRING, ANSWER_LABEL
data = [
    ("Cc1ccc(S(=O)(=O)Nc2ccc3c(c2)C(=O)N([C@@H](C)CO)C[C@H](C)[C@@H](CN(C)Cc2ccc(Cl)c(Cl)c2)OCCCC[C@H](C)O3)cc1", "1 (yes)"),
    ("C[C@@H]1CN([C@@H](C)CO)C(=O)Cc2cc(NC(=O)Cn3cnnn3)ccc2O[C@@H]1CN(C)C(=O)Nc1cccc2ccccc12", "0 (no)"),
    ("Cc1ccc(S(=O)(=O)Nc2ccc3c(c2)C(=O)N([C@H](C)CO)C[C@H](C)[C@@H](CN(C)Cc2ccc(Cl)c(Cl)c2)OCCCC[C@H](C)O3)cc1", "0 (no)"),
    ("Cc1ccc(S(=O)(=O)Nc2ccc3c(c2)C(=O)N([C@@H](C)CO)C[C@@H](C)[C@H](CN(C)Cc2ccc(Cl)c(Cl)c2)OCCCC[C@@H](C)O3)cc1", "0 (no)"),
]

(Q) # fetch the recorded call for C[C@@H]1CN([C@@H](C)CO)C(=O)c2cccc(NC(=O)c3ccncc3)c2O[C@H]1CN(C)Cc1ccc(-c2ccccc2)cc1 here
(A) 0 (no)

(Q) Likewise for Cc1ccc(S(=O)(=O)Nc2ccc3c(c2)C(=O)N([C@H](C)CO)C[C@@H](C)[C@H](CN(C)Cc2ccc(Cl)c(Cl)c2)OCCCC[C@@H](C)O3)cc1 ?
(A) 0 (no)

----------
- Tested on: HSkMC
- TEST_DETAILS: cytotoxicity call (relative viability < 0.9)
- PROTOCOL_CONDITIONS: 10 µM
The whole screen tested about 39,000 compounds, of which about 1,500 (3.8%) were called active. What follows is part of a selection rich in actives, with near analogues and random picks from the rest.
Please reply with one of these outcomes: active, inactive

Examples with answers:
# STRUCTURE_SMILES_STRING, ANSWER_LABEL
rows = [
    ("C[C@@H]1CCCCO[C@H](CN(C)CC2CCCCC2)[C@H](C)CN([C@H](C)CO)C(=O)c2cc(NC(=O)Nc3ccc(C(F)(F)F)cc3)ccc2O1", "active"),
    ("C[C@H](CO)N1C[C@H](C)[C@H](CN(C)CC2CCCCC2)OCCCC[C@H](C)Oc2ccc(NC(=O)Nc3ccc(C(F)(F)F)cc3)cc2C1=O", "active"),
    ("C[C@@H]1CCCCO[C@@H](CN(C)CC2CC2)[C@H](C)CN([C@H](C)CO)C(=O)c2cc(NC(=O)Nc3ccc(C(F)(F)F)cc3)ccc2O1", "inactive"),
    ("COc1ccc(CN(C)C[C@H]2Oc3ccc(NC(=O)CCN4CCOCC4)cc3C(=O)N([C@H](C)CO)C[C@H]2C)cc1", "inactive"),
    ("C[C@@H]1CCCCO[C@@H](CN(C)CC2CCCCC2)[C@H](C)CN([C@@H](C)CO)C(=O)c2cc(NC(=O)Nc3ccc(C(F)(F)F)cc3)ccc2O1", "active"),
]

# evaluate next
(Q) # fetch the recorded call for C[C@@H]1CCCCO[C@H](CN(C)CC2CCCCC2)[C@H](C)CN([C@@H](C)CO)C(=O)c2cc(NC(=O)Nc3ccc(C(F)(F)F)cc3)ccc2O1 here
(A) active

----------
- Tested on: HSkMC
- TEST_DETAILS: cytotoxicity call (relative viability < 0.9)
- PROTOCOL_CONDITIONS: 10 µM
About 1,500 (3.8%) of roughly 39,000 compounds were called active. The sample holds actives, similar compounds and a random draw of the others, so the mix is not that of the screen.
Please reply with one of these outcomes: y (active), n (inactive)

Examples with answers:
# COMPOUND, ANSWER_LABEL
records = [
    ("CO/N=C1\\C[C@]2(C[C@@H]3C[C@@H](C/C=C(\\C)C[C@@H](C)/C=C/C=C4\\CO[C@@H]5[C@H](O)C(C)=C[C@@H](C(=O)O3)[C@]45O)O2)O[C@H](/C(C)=C/C(C)C)[C@H]1C", "y"),
    ("C[C@H]1CN([C@@H](C)CO)C(=O)Cc2cc(NS(=O)(=O)c3cn(C)cn3)ccc2O[C@H]1CN(C)S(=O)(=O)c1ccc(Cl)cc1", "n"),
    ("Cc1ccc(S(=O)(=O)N(C)C[C@H]2Oc3ncc(-c4ccncc4)cc3C(=O)N([C@H](C)CO)C[C@H]2C)cc1", "n"),
    ("Cc1noc(C)c1NC(=O)Nc1ccc2c(c1)C(=O)N([C@H](C)CO)C[C@@H](C)[C@H](CN(C)C(=O)Nc1c(C)noc1C)OCCCC[C@@H](C)O2", "n"),
]

(Q) # fetch the recorded call for CON=C1CC2(CC3CC(CC=C(C)CC(C)C=CC=C4COC5C(O)C(C)=CC(C(=O)O3)C45O)O2)OC(C(C)=CC(C)C)C1C (stereo unspecified) here
(A) y

(Q) Likewise for C[C@@H]1CN([C@@H](C)CO)C(=O)c2cc(NC(=O)Nc3ccc(C(F)(F)F)cc3)ccc2O[C@@H]1CN(C)Cc1ccc(C(=O)Nc2ccccc2N)cc1 ?
(A) n

----------
- System: HSkMC (human skeletal muscle cells)
- TEST_DETAILS: cytotoxicity call (relative viability < 0.9)
- PROTOCOL_CONDITIONS: 10 µM
Among all 39,000 compounds or so, about 1,500 (3.8%) were called active. For the sample, actives were picked, then their nearest neighbours and some compounds at random.
Please reply with one of these outcomes: class 1 for active, class 0 for inactive

# STRUCTURE_SMILES_STRING, ANSWER_LABEL
measured = [
    ("C[C@@H]1CCCCO[C@@H](CN(C)S(=O)(=O)c2ccc(F)cc2)[C@@H](C)CN([C@H](C)CO)C(=O)c2cc(NC(=O)c3ccccc3)ccc2O1", "class 0"),
    ("C[C@@H]1CN([C@H](C)CO)C(=O)c2cc(NC(=O)Nc3ccc(C(F)(F)F)cc3)ccc2O[C@H]1CN(C)Cc1ccc(Cl)c(Cl)c1", "class 1"),
    ("COc1ccc(S(=O)(=O)Nc2ccc3c(c2)C(=O)N([C@@H](C)CO)C[C@@H](C)[C@@H](CN(C)C(=O)NC2CCCCC2)OCCCC[C@H](C)O3)cc1", "class 0"),
    ("COCC#Cc1cnc2c(c1)C(=O)N([C@H](C)CO)C[C@H](C)[C@@H](CN(C)C(=O)Nc1ccccc1OC)O2", "class 0"),
    ("O=C(N[C@H](c1ccc2ccccc2n1)c1cccs1)C1CCN(Cc2cccc(C(F)(F)F)c2)CC1", "class 0"),
    ("N#Cc1c(Oc2ccc(F)c(NC(=O)Cc3cccc(C(F)(F)F)c3)c2)ccc2nc(NC(=O)C3CC3)sc12", "class 1"),
]

# evaluate next
(Q) # fetch the recorded call for O=C(C[C@@H]1C[C@H]2c3cc(NS(=O)(=O)c4ccc(F)cc4)ccc3O[C@H]2[C@H](CO)O1)NCc1ccccn1 here
(A) class 0

Reference for the values: the antibiotic and cytotoxicity screens of Wong et al. (2023)
